Exercise: state measured Bliss excess for each of the compounds provided.
System: SNU-407 (Colorectal Carcinoma)
Test: Bliss excess, mean over the matrix (fraction); higher = more synergy

Tell us which Bliss excess value is on record for CC1(C)CCC(CN2CCN(c3ccc(C(=O)NS(=O)(=O)c4ccc(NCC5CCOCC5)c([N+](=O)[O-])c4)c(Oc4cnc5[nH]ccc5c4)c3)CC2)=C(c2ccc(Cl)cc2)C1 [Venetoclax] + C=CCn1c(=O)c2cnc(Nc3ccc(N4CCN(C)CC4)cc3)nc2n1-c1cccc(C(C)(C)O)n1 [AZD1775] (first compound max 1 µM, partner max 1 µM)
-0.0755

Tell us which Bliss excess value is on record for CN(C)CCCOc1ccc(-c2ccc3ncc4c(c3c2)n(C2CCOCC2)c(=O)n4C)cn1 [AZD0156] + C=CCn1c(=O)c2cnc(Nc3ccc(N4CCN(C)CC4)cc3)nc2n1-c1cccc(C(C)(C)O)n1 [AZD1775] (first compound max 1 µM, partner max 1 µM)
-0.0136

Tell us which Bliss excess value is on record for CN(C)CCCOc1ccc(-c2ccc3ncc4c(c3c2)n(C2CCOCC2)c(=O)n4C)cn1 [AZD0156] + CCN(CCO)CCCOc1ccc2c(Nc3cc(CC(=O)Nc4cccc(F)c4)[nH]n3)ncnc2c1 [AZD2811] (first compound max 1 µM, 7x7, partner max 1 µM)
-0.0247

Tell us which Bliss excess value is on record for Cn1cnc2c(F)c(Nc3ccc(Br)cc3Cl)c(C(=O)NOCCO)cc21 [Selumetinib] + CCN(CCO)CCCOc1ccc2c(Nc3cc(CC(=O)Nc4cccc(F)c4)[nH]n3)ncnc2c1 [AZD2811] (first compound max 10 µM, 7x7, partner max 1 µM)
-0.0522

Tell us which Bliss excess value is on record for COc1cc2ncnc(Nc3ccc(F)c(Cl)c3)c2cc1OCCCN1CCOCC1 [Gefitinib] + CC(C)n1c(=O)n(C)c2cnc3cc(F)c(-c4ccc(OCCCN5CCCCC5)nc4)cc3c21 [AZD1390] (first compound max 10 µM, 7x7, partner max 0.3 µM)
-0.0783

Tell us which Bliss excess value is on record for CC1(C)CCC(CN2CCN(c3ccc(C(=O)NS(=O)(=O)c4ccc(NCC5CCOCC5)c([N+](=O)[O-])c4)c(Oc4cnc5[nH]ccc5c4)c3)CC2)=C(c2ccc(Cl)cc2)C1 [Venetoclax] + Cn1cnc2c(F)c(Nc3ccc(Br)cc3Cl)c(C(=O)NOCCO)cc21 [Selumetinib] (first compound max 1 µM, 7x7, partner max 3 µM)
-0.0275

###

System: SKG-IIIa (Cervical Carcinoma)
Experiment: combination Emax (second highest fraction inhibited in the dose matrix, 72 h); higher = more inhibition; extreme values may be limits of the assay
Exercise: state measured combination Emax for each of the compounds provided.
Reply briefly: the number, and no unit.

Tell us which combination Emax value is on record for CC(=O)Nc1cccc(-n2c(=O)n(C3CC3)c(=O)c3c(Nc4ccc(I)cc4F)n(C)c(=O)c(C)c32)c1 [Trametinib] + Cc1nc(-c2cn3c(n2)-c2ccc(-c4cnn(C(C)(C)C(N)=O)c4)cc2OCC3)n(C(C)C)n1 [Taselisib] (first compound max 1 µM, 7x7, partner max 10 µM)
0.527

Tell us which combination Emax value is on record for COc1nnc2ccc(N3CCC(c4ccc(OCCN5CCN(C)C(=O)[C@H]5C)cc4)CC3)nn12 [AZD5153] + Cn1cnc2c(F)c(Nc3ccc(Br)cc3Cl)c(C(=O)NOCCO)cc21 [Selumetinib] (first compound max 1 µM, 7x7, partner max 10 µM)
0.537

Tell us which combination Emax value is on record for Cc1c2c(nn1C)CSCc1cc(n(C)n1)CSc1cc(c3ccccc3c1)OCCCc1c(C(=O)O)n(C)c3c-2c(Cl)ccc13 [AZD5991] + Nc1ccn([C@@H]2O[C@H](CO)[C@@H](O)C2(F)F)c(=O)n1 [Gemcitabine] (first compound max 1 µM, 7x7, partner max 0.3 µM)
0.332

Tell us which combination Emax value is on record for CC(=O)c1c(C)c2cnc(Nc3ccc(N4CCNCC4)cn3)nc2n(C2CCCC2)c1=O [Palbociclib] + Cc1c2c(nn1C)CSCc1cc(n(C)n1)CSc1cc(c3ccccc3c1)OCCCc1c(C(=O)O)n(C)c3c-2c(Cl)ccc13 [AZD5991] (first compound max 10 µM, 7x7, partner max 1 µM)
0.146

Tell us which combination Emax value is on record for NC1(C(=O)N[C@@H](CCO)c2ccc(Cl)cc2)CCN(c2ncnc3[nH]ccc23)CC1 [Capivasertib] + COc1nnc2ccc(N3CCC(c4ccc(OCCN5CCN(C)C(=O)[C@H]5C)cc4)CC3)nn12 [AZD5153] (first compound max 10 µM, 7x7, partner max 1 µM)
0.43

Tell us which combination Emax value is on record for Cc1c2c(nn1C)CSCc1cc(n(C)n1)CSc1cc(c3ccccc3c1)OCCCc1c(C(=O)O)n(C)c3c-2c(Cl)ccc13 [AZD5991] + CC1(C)CCC(CN2CCN(c3ccc(C(=O)NS(=O)(=O)c4ccc(NCC5CCOCC5)c([N+](=O)[O-])c4)c(Oc4cnc5[nH]ccc5c4)c3)CC2)=C(c2ccc(Cl)cc2)C1 [Venetoclax] (first compound max 1 µM, 7x7, partner max 1 µM)
0.251

Tell us which combination Emax value is on record for O=C(c1cc(Cc2n[nH]c(=O)c3ccccc23)ccc1F)N1CCN(C(=O)C2CC2)CC1 [Olaparib] + CN(CC[C@H](CSC1=CC=CC=C1)NC2=C(C=C(C=C2)S(=O)(=O)NC(=O)C3=CC=C(C=C3)N4CCC(CC4)[C@H](C5=CC=CC=C5C6=CC=C(C=C6)Cl)O)S(=O)(=O)C(F)(F)F)CCO [AZD4320] (first compound max 10 µM, 7x7, partner max 1 µM)
0.137

Tell us which combination Emax value is on record for CC1(C)CCC(CN2CCN(c3ccc(C(=O)NS(=O)(=O)c4ccc(NCC5CCOCC5)c([N+](=O)[O-])c4)c(Oc4cnc5[nH]ccc5c4)c3)CC2)=C(c2ccc(Cl)cc2)C1 [Venetoclax] + Cn1cnc2c(F)c(Nc3ccc(Br)cc3Cl)c(C(=O)NOCCO)cc21 [Selumetinib] (first compound max 1 µM, 7x7, partner max 3 µM)
0.127

###

System: NMC-G1 (Low Grade Glioma)
Assay: Bliss excess, mean over the matrix (fraction); higher = more synergy
READOUT: Bliss excess
Reply briefly: the number, and no unit.

Tell us which Bliss excess value is on record for CN(CCO)CC[C@H](CSc1ccccc1)Nc1ccc(S(=O)(=O)NC(=O)c2ccc(N3CCC([C@@H](O)c4ccccc4-c4ccc(Cl)cc4)CC3)cc2)cc1S(=O)(=O)C(F)(F)F [AZD4320] + Cn1cnc2c(F)c(Nc3ccc(Br)cc3Cl)c(C(=O)NOCCO)cc21 [Selumetinib] (first compound max 1 µM, 7x7, partner max 3 µM)
-0.0624

Tell us which Bliss excess value is on record for COc1cccc(OCCCN)c1-c1cc(Nc2cnc(C#N)cn2)n[nH]1 [Prexasertib] + Cc1cc2ncnn2cc1Nc1ncc2c(n1)n(C1CCOCC1)c(=O)n2C [AZD7648] (first compound max 1 µM, 7x7, partner max 10 µM)
-0.0374

Tell us which Bliss excess value is on record for Cc1c2c(nn1C)CSCc1cc(n(C)n1)CSc1cc(c3ccccc3c1)OCCCc1c(C(=O)O)n(C)c3c-2c(Cl)ccc13 [AZD5991] + C=CCn1c(=O)c2cnc(Nc3ccc(N4CCN(C)CC4)cc3)nc2n1-c1cccc(C(C)(C)O)n1 [AZD1775] (first compound max 1 µM, partner max 1 µM)
-0.0012

Tell us which Bliss excess value is on record for CCN(CCO)CCCOc1ccc2c(Nc3cc(CC(=O)Nc4cccc(F)c4)[nH]n3)ncnc2c1 [AZD2811] + O=C(c1cc(Cc2n[nH]c(=O)c3ccccc23)ccc1F)N1CCN(C(=O)C2CC2)CC1 [Olaparib] (first compound max 1 µM, 7x7, partner max 10 µM)
-0.025

Tell us which Bliss excess value is on record for CC(=O)Nc1cccc(-n2c(=O)n(C3CC3)c(=O)c3c(Nc4ccc(I)cc4F)n(C)c(=O)c(C)c32)c1 [Trametinib] + Cc1nc(-c2cn3c(n2)-c2ccc(-c4cnn(C(C)(C)C(N)=O)c4)cc2OCC3)n(C(C)C)n1 [Taselisib] (first compound max 1 µM, 7x7, partner max 10 µM)
0.0478

Tell us which Bliss excess value is on record for CN(CCO)CC[C@H](CSc1ccccc1)Nc1ccc(S(=O)(=O)NC(=O)c2ccc(N3CCC([C@@H](O)c4ccccc4-c4ccc(Cl)cc4)CC3)cc2)cc1S(=O)(=O)C(F)(F)F [AZD4320] + C=CCn1c(=O)c2cnc(Nc3ccc(N4CCN(C)CC4)cc3)nc2n1-c1cccc(C(C)(C)O)n1 [AZD1775] (first compound max 1 µM, partner max 1 µM)
0.0422

Tell us which Bliss excess value is on record for Cc1c2c(nn1C)CSCc1cc(n(C)n1)CSc1cc(c3ccccc3c1)OCCCc1c(C(=O)O)n(C)c3c-2c(Cl)ccc13 [AZD5991] + C1CN(CCC1(C(=O)N[C@@H](CCO)C2=CC=C(C=C2)Cl)N)C3=NC=NC4=C3C=CN4 [Capivasertib] (first compound max 1 µM, 7x7, partner max 3 µM)
-0.0172

Tell us which Bliss excess value is on record for CC1(C)CCC(CN2CCN(c3ccc(C(=O)NS(=O)(=O)c4ccc(NCC5CCOCC5)c([N+](=O)[O-])c4)c(Oc4cnc5[nH]ccc5c4)c3)CC2)=C(c2ccc(Cl)cc2)C1 [Venetoclax] + C=CCn1c(=O)c2cnc(Nc3ccc(N4CCN(C)CC4)cc3)nc2n1-c1cccc(C(C)(C)O)n1 [AZD1775] (first compound max 1 µM, partner max 1 µM)
0.0064

Tell us which Bliss excess value is on record for Cc1c2c(nn1C)CSCc1cc(n(C)n1)CSc1cc(c3ccccc3c1)OCCCc1c(C(=O)O)n(C)c3c-2c(Cl)ccc13 [AZD5991] + Cc1cc2ncnn2cc1Nc1ncc2c(n1)n(C1CCOCC1)c(=O)n2C [AZD7648] (first compound max 1 µM, 7x7, partner max 10 µM)
-0.0606
